Target: Integrin alpha-V/beta-3 (Homo sapiens, UniProt P05106+P06756)
Sequence (P05106 27-788 limits assumed): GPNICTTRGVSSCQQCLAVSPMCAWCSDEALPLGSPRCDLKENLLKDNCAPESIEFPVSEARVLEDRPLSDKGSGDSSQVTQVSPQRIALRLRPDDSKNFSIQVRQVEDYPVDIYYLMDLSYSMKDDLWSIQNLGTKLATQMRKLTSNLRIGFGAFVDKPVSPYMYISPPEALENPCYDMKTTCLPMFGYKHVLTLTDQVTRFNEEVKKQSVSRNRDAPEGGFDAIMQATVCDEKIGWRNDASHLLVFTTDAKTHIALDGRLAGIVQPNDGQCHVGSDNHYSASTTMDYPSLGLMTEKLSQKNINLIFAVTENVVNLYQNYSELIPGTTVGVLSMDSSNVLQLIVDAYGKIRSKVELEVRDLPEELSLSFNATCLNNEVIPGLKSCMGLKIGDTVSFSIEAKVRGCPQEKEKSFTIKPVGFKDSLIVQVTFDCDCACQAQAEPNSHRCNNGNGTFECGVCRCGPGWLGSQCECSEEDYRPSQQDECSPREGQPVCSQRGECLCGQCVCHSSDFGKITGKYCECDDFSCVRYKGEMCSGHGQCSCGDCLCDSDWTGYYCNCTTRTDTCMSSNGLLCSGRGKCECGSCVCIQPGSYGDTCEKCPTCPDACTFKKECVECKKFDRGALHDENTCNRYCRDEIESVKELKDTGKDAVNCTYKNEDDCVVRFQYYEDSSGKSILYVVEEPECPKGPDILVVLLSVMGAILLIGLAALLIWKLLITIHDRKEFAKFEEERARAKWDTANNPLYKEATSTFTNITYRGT
Sequence (P06756 31-889 limits assumed): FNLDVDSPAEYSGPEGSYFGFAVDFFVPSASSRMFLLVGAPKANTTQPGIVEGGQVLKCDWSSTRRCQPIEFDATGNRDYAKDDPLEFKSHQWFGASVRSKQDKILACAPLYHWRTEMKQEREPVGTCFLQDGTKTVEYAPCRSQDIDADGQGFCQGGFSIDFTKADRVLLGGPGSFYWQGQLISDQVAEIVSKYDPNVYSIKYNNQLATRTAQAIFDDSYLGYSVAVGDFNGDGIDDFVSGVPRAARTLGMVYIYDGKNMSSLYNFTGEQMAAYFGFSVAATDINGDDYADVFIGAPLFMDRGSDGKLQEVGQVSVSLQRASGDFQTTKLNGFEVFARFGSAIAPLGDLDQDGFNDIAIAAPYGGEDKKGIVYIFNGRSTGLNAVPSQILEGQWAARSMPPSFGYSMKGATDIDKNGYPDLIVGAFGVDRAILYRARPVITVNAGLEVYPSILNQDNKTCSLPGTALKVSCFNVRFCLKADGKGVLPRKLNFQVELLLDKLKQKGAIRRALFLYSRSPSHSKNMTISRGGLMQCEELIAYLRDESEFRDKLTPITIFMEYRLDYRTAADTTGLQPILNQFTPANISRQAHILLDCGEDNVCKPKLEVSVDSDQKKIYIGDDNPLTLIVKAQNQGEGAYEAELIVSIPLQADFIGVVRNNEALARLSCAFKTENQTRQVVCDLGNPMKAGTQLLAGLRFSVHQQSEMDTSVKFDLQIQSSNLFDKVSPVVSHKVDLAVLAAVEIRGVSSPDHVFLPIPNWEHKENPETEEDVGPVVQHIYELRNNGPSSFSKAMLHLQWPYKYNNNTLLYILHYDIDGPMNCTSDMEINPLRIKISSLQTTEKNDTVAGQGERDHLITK
Sequence (P06756 891-1048 limits assumed): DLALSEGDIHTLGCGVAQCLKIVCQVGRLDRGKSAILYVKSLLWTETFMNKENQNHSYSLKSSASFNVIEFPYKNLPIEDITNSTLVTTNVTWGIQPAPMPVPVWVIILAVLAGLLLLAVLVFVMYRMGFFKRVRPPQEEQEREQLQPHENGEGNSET
Test: Inhibition of integrin alpha-V-beta-3-mediated SK-MEL-24 cell adhesion to fibronectin
ENDPOINT: IC50 (µM)
Dear colleague, please return just the value in µM, with no unit written.

Record request: IC50 value, item CCCN(C(=O)CC(=O)O)C1=C(C)CC(c2ccccc2)N(Cc2ccc(C(=N)N)cc2)C1=O (stereo not given)
120

Try this compound next: CCCN(C(=O)CC(=O)O)C1=C(C)CC(c2ccccc2)N(Cc2ccc(N)cc2)C1=O (stereo not given)
0.6

Quick one: CCCN(C(=O)CC(=O)O)C1=C(C)CC(c2ccccc2)N(CCCCN)C1=O (stereo not given)
0.038

###

Biological target: Integrin alpha-5/beta-1 (Homo sapiens, UniProt P05556+P08648)
Sequence (P05556 21-798 limits assumed): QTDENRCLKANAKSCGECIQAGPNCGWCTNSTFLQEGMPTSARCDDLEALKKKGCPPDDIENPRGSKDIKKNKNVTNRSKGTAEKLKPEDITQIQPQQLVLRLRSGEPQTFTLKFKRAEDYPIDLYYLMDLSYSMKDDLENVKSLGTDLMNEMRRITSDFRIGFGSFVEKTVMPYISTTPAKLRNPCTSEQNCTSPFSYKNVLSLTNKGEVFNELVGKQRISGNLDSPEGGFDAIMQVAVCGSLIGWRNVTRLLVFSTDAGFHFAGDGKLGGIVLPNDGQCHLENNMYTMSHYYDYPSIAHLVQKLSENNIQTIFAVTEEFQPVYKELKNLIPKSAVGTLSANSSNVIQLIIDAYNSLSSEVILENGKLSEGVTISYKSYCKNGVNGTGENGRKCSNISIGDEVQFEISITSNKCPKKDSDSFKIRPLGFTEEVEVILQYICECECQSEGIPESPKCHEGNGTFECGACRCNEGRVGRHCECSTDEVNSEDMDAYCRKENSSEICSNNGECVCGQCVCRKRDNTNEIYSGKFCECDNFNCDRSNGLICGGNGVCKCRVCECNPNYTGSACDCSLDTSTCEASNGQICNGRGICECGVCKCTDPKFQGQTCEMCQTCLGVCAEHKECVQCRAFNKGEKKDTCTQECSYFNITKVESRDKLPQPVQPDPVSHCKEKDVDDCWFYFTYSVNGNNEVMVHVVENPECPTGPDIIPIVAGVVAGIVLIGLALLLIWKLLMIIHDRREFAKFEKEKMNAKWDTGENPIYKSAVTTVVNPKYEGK
Sequence (P08648 42-894 limits assumed): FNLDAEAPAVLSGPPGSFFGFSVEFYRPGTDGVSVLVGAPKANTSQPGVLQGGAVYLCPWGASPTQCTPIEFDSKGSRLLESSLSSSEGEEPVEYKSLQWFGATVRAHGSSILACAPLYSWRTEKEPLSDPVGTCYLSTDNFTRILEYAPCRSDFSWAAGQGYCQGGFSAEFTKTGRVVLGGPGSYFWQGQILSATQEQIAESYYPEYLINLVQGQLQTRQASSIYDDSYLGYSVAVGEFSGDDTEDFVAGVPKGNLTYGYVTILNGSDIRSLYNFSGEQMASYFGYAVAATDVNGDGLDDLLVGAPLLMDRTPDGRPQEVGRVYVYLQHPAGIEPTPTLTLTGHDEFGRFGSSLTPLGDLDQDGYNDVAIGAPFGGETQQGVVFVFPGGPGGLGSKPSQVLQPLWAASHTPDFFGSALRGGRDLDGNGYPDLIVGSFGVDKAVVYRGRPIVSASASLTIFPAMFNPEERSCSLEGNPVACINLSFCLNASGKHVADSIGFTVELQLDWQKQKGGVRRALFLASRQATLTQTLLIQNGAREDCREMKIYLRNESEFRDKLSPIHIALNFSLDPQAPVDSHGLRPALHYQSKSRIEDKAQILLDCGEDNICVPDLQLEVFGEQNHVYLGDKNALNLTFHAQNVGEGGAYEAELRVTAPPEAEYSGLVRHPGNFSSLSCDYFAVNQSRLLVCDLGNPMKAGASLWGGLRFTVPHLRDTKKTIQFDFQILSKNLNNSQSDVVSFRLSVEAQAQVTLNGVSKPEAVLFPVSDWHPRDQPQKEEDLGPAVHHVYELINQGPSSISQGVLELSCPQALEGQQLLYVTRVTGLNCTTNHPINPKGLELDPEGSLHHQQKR
Sequence (P08648 895-1049 limits assumed): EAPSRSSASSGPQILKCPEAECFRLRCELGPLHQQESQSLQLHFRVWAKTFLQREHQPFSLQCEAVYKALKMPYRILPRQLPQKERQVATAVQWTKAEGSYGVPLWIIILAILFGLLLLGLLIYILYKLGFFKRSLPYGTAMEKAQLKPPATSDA
Experiment: Inhibition of integrin alpha-5-beta-1-mediated K562 cell adhesion to fibronectin
Give measured IC50 for each item. Keep answers brief.
Unit µM implied. Number only.

I am curious: what IC50 value has been reported for CCCN(C(=O)CC(=O)O)C1=C(C)CC(c2ccccc2)N(Cc2ccc(N)cc2)C1=O (configuration not stated) ?
0.17

And then CCCN(C(=O)CC(=O)O)C1=C(C)C[C@H](c2ccccc2)N([C@@H](C)c2ccc(N)cc2)C1=O , what is it?
35.1

Also CCCN(C(=O)CC(=O)O)C1=C(C)C[C@@H](c2ccccc2)N([C@@H](C)c2ccc(N)cc2)C1=O , if possible.
0.057

# repeat for CCCN(C(=O)CC(=O)O)C1=C(C)C[C@H](c2ccc(N)cc2)N([C@@H](C)c2ccc(OC)cc2)C1=O
0.018

Further, for CCCN(C(=O)CC(=O)O)C1=C(C)CC(c2ccccc2)N(CCCCN)C1=O (configuration not stated) ?
0.043

###

Molecular target: Integrin alpha-5/beta-1 (Homo sapiens, UniProt P05556+P08648)
Experiment: Inhibition of integrin alpha-5-beta-1-mediated K562 cell adhesion to fibronectin
pIC50: −log10 of the molar value. Residues, ends and D or L forms follow the SMILES beside them.
ENDPOINT: pIC50

GET /values?readout=pIC50&item= CCCN(C(=O)CC(=O)O)C1=C(C)CC(c2ccc(C(=N)N)cc2)N([C@@H](C)c2ccc(OC)cc2)C1=O (some centres undefined)
< 3.00

Ok, now CCCN(C(=O)C(CC(=O)OC)C(=O)O)C1=C(C)CC(c2ccccc2)N(Cc2ccc(N)cc2)C1=O (centres undefined)
< 3.00

Follow-up item: CCCN(C(=O)C(CC(=O)O)C(=O)O)C1=C(C)CC(c2ccccc2)N(Cc2ccc(N)cc2)C1=O (centres undefined)
< 3.00

Also CC(=O)N[C@@H](CC(=O)O)C(=O)N[C@@H](CCCNC(=N)N)C(=O)N[C@@H](CC(C)C)C(=O)N[C@@H](CC(=O)O)C(=O)N[C@@H](CO)C(=O)O (Ac-DRLDS-OH) , if possible.
3.59

###

Target: Integrin alpha-V/beta-3 (Homo sapiens, UniProt P05106+P06756)
Test: Inhibition of integrin alpha-V-beta-3-mediated SK-MEL-24 cell adhesion to fibronectin
Residues, ends and D or L forms follow the SMILES beside them.
ENDPOINT: pIC50
pIC50 here: minus log base 10 of the concentration, concentration in moles per litre.

Need pIC50 of CCCN(C(=O)CC(=O)O)C1=C(C)C[C@H](c2ccc(N)cc2)N([C@@H](C)c2ccc(OC)cc2)C1=O , thanks.
4.68

Can you check CCCN(C(=O)CC(=O)O)C1=C(C)C[C@@H](c2ccccc2)N([C@@H](C)c2ccc(N)cc2)C1=O next?
7.15

Same question, CC(=O)N[C@@H](CC(=O)O)C(=O)N[C@@H](CCCNC(=N)N)C(=O)N[C@@H](CC(C)C)C(=O)N[C@@H](CC(=O)O)C(=O)N[C@@H](CO)C(=O)O (Ac-DRLDS-OH) this time
7.60

Similarly, CCCN(C(=O)C(CC(=O)OC)C(=O)O)C1=C(C)CC(c2ccccc2)N(Cc2ccc(N)cc2)C1=O (stereo not drawn) ?
4.35

Same for CCCN(C(=O)CC(=O)O)C1=C(C)C[C@@H](c2ccc(N)cc2)N([C@@H](C)c2ccc(OC)cc2)C1=O
6.62

###

Consider the following molecules; for each one, report its IC50.
Biological target: Integrin alpha-V/beta-3 (Homo sapiens, UniProt P05106+P06756)
Experiment: Inhibition of integrin alpha-V-beta-3-mediated SK-MEL-24 cell adhesion to fibronectin

Entry under review: CCCN(C(=O)CCC(=O)O)C1=C(C)CC(c2ccccc2)N(Cc2ccc(C(=N)N)cc2)C1=O (stereo not drawn) . Reported IC50?
> 1000 µM

Now give it for CCCN(C(=O)C(CC(=O)O)C(=O)O)C1=C(C)CC(c2ccccc2)N(Cc2ccc(C(=N)N)cc2)C1=O (stereo not drawn) too.
> 1000 µM

Lookup CCCN(C(=O)C(CC(=O)OC)C(=O)O)C1=C(C)CC(c2ccccc2)N(Cc2ccc(C(=N)N)cc2)C1=O (stereo not drawn)
> 1000 µM
